Data origin, for the record: patent US20140220040A1

Target: T1, Human LRP6-Fc (R&D Systems), recombinant human LRP6 containing the complete extracellular domain (human, UniProt O75581 20-1370)
T1 construct: Bought protein; also called hLRP6; Fc-antigen; not shown: Fc part of the bought fusion protein
T1 sequence: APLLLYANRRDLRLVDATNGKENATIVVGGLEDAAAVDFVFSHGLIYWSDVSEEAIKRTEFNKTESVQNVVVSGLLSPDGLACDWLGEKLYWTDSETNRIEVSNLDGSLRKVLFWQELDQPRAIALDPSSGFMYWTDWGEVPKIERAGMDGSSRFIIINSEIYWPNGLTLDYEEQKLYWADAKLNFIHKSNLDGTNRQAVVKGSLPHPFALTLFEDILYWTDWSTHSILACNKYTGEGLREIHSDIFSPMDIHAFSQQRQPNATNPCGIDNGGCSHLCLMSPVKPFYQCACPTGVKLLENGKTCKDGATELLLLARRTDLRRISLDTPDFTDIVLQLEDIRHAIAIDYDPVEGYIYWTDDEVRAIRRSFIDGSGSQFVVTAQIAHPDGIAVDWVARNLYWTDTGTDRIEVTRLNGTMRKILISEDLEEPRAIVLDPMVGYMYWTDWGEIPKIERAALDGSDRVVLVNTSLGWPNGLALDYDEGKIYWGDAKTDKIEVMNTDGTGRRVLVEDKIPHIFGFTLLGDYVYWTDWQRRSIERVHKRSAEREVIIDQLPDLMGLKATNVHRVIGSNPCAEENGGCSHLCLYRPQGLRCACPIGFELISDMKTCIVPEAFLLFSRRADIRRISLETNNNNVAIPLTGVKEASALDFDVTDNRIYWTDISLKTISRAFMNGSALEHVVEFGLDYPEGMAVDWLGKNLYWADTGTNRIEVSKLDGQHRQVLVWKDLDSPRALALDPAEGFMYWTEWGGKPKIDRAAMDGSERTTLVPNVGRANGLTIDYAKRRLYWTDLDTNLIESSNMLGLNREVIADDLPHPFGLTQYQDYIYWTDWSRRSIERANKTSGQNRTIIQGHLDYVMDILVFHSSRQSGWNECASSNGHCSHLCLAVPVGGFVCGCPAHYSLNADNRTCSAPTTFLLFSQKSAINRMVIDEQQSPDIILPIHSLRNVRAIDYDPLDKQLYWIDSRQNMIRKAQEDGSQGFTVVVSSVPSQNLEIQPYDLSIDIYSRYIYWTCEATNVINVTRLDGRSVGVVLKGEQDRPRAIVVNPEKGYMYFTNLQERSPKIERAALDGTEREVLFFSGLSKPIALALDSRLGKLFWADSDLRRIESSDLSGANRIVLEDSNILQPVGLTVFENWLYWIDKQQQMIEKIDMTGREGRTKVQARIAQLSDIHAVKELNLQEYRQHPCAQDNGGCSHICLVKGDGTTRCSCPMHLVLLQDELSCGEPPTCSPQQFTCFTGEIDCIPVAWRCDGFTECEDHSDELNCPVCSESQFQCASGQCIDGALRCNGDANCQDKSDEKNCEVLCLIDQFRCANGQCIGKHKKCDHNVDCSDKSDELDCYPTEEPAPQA
Test: SPR (BIAcore), mAb captured on anti-mouse chip, Fc-antigen injected, 1:1 model
QUANTITY_NAME: kon (M⁻¹ s⁻¹)
Reply numerically in M⁻¹ s⁻¹, unit not repeated.

Prompt line: # get_value(readout='kon', item= anti-LRP6 monoclonal antibody 1281.1 (antibody, V domains shown, Murine hybridoma mAb, protein G purified; also called VH19/VL19) VH: QVQLQQSGAELAKPGASVKISCKASGYTFTSYWMHWVKQRPGQGLEWIGYINPNTGYSEYNQKFRDKATLTANKSSSTANMQLSSLTSDDSAVYYCARTAQYYGSPRGYYAMDSWGQGTSVTVSS VL: DIVMTQAAFSNPVTLGTSASISCRSSKSLLHSNGITYLCWFLQKPGQSPQLLIYQMSNLASGVPDRFSSSGSGTDFTLRISRVEAEDVGVYFCAQNLDLPWTFGGGTKLEI )
Response line: 45500
